Every entry's value here was drawn from patent US20110142802A1.

test system: Pyrenophora teres (PYRNTE); assay: Growth inhibition of Pyrenophora teres in nutrient broth, 96-well microtiter plate, photometric; assay type: cell-based; conditions: single active ingredient 0.0625 mg/L (ppm ai); 3 days
endpointName: Observed control in % (% Cobs) (%)
Express the result in % but write the number alone.

Example compounds with recorded Observed control in % (% Cobs):
# compound, u, measured
measured = [
    ("CN1COCN(Cc2cnc(Cl)s2)/C1=N\\[N+](=O)[O-]", "%", 0.0),
    ("OC(Cc1ccccc1Cl)(Cn1nc[nH]c1=S)C1(Cl)CC1 (stereo not shown)", "%", 28.9),
    ("CC(C1CC1)C(O)(Cn1cncn1)c1ccc(Cl)cc1 (stereo not shown)", "%", 0.0),
]

Attention now turns to another entry.
Data request: Record request: Observed control in % (% Cobs) value, item Cc1cc(C2CC2)nc(Nc2ccccc2)n1
Data returned: 23.8
